biological target: Ba/F3-KIF5B-RET-V804M cells (Homo sapiens, UniProt P07949, V804M); construct: host or cells: Ba/F3 (BaF3 from RIKEN BRC CELL BANK); the other entry of the earlier key: KIF5B (P33176, Kinesin-1 heavy chain); experiment: Cell anti-proliferation experiment (CellTiter-Glo), Ba/F3-KIF5B-RET-V804M; format: cell-based; conditions: cell viability, 72 h
Sequence (P07949 713-1063 V804M limits assumed): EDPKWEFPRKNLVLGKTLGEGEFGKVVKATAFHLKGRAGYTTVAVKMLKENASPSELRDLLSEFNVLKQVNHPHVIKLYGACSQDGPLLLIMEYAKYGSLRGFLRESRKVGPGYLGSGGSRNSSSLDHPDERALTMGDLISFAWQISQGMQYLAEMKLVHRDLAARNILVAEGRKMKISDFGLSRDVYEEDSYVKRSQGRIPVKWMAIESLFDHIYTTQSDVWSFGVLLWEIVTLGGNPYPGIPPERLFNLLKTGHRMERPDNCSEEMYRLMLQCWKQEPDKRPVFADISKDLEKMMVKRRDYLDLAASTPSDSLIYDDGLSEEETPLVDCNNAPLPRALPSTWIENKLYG
measured-metric: pIC50
Note on pIC50: it is the negative log10 of concentration, concentration in mol/L.

Enquiry: Give reported pIC50 value for `CO[C@]1(C(=O)N[C@@H](C)c2ccc(-n3cnc(Cl)n3)nc2)CC[C@H](c2nc(Nc3cc(C)[nH]n3)cc3cccnc32)CC1`
Return: 6.74

Enquiry: Report measured pIC50; entry is `CO[C@]1(C(=O)N[C@@H](C)c2ccc(-n3cc(F)cn3)nn2)CC[C@H](c2nc(Nc3cc(C)[nH]n3)cc3cccnc32)CC1`
Return: 7.28

Enquiry: Specify measured pIC50 for `CO[C@]1(C(=O)N[C@@H](C)c2ccc(-n3cc(F)cn3)nc2)CC[C@H](c2nc(Nc3cc(C)[nH]n3)ccc2C#N)CC1` .
Return: 7.37

Enquiry: Recall and state the measured pIC50 for `CO[C@]1(C(=O)N[C@@H](C)c2ccc(-n3cnc(C)n3)nc2)CC[C@H](c2nc(Nc3cc(C)[nH]n3)cc3cccnc32)CC1` .
Return: 6.60

Enquiry: Please give measured pIC50 of the following entry: `CO[C@]1(C(=O)N[C@@H](C)c2cnc(-n3cc(F)cn3)cn2)CC[C@H](c2nc(Nc3cc(C)[nH]n3)cc3cccnc32)CC1`
Return: 8.10

Enquiry: Query pIC50 for `CO[C@]1(C(=O)N[C@@H](C)c2ccc(-n3cc(F)cn3)nc2)CC[C@H](c2nc(Nc3cc(C)[nH]n3)cc3cccnc32)CC1`
Return: 7.76

Enquiry: Read the entry `CO[C@]1(C(=O)N[C@@H](C)c2ccc(-n3cc(F)cn3)nc2)CC[C@H](c2nc(Nc3cc(C)[nH]n3)cc3nccnc32)CC1` and write its reported pIC50.
Return: 6.96

Enquiry: Report pIC50, nothing else, for this molecule: `CO[C@]1(C(=O)N[C@@H](C)c2ccc(-n3cc(F)cn3)nc2)CC[C@H](c2nc(Nc3cc(C)[nH]n3)c3ccccc3n2)CC1`
Return: 8.13

Data origin, for the record: patent US12629358B2
